# System name: androgen receptor (AR) (Homo sapiens, UniProt P10275)
# Sequence (P10275 1-920): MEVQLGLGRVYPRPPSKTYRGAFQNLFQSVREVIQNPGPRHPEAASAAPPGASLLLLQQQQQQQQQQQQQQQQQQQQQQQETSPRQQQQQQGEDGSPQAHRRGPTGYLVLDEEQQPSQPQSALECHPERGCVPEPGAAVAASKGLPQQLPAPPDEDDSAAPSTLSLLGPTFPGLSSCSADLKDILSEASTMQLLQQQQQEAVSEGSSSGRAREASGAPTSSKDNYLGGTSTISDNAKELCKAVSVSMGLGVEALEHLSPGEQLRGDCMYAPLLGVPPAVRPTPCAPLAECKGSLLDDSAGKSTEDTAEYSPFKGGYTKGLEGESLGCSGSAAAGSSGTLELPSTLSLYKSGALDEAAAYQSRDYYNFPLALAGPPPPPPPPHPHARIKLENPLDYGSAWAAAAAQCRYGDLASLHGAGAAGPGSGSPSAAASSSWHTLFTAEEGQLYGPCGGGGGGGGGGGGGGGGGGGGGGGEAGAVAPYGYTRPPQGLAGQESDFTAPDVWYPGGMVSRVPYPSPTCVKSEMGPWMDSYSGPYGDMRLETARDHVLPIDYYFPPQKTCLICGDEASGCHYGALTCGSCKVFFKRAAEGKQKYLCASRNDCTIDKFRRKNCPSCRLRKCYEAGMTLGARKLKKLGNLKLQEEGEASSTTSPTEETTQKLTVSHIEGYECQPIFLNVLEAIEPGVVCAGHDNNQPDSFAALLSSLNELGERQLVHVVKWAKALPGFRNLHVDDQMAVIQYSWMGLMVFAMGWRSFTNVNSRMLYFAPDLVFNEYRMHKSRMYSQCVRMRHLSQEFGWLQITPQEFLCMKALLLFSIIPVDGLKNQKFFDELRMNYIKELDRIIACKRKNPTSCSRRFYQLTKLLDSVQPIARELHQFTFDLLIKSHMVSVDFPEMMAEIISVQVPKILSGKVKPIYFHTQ
# Method summary: Degradation of androgen receptor (AR) protein in VCaP cells by ELISA
# Type: cell-based
# Applied conditions: AR degradation, VCaP cells, 16 h, ELISA, Table 3-1; read-out: DC50
Assay endpoint: DC50

[[record]]
compound = "CC1(C)[C@H](Oc2ccc(C#N)c(Cl)c2)C(C)(C)[C@H]1N1Cc2nc(C#CC3CCC(N4CCC5(CN(c6ccc7c(c6)C(=O)N(C6CCC(=O)NC6=O)C7=O)C5)C4)CC3)ccc2C1=O (some centres unmarked) [Compound 372]"
recorded_measurement = "> 300 nM"

[[record]]
compound = "N#Cc1ccc(O[C@H]2CC[C@H](NC(=O)c3nnc(N4CCC(CN5CCC6(CC5)CN(c5cc7c(cc5F)C(=O)N(C5CCC(=O)NC5=O)C7=O)C6)CC4)s3)CC2)cc1Cl (some centres unmarked) [Compound 244]"
recorded_measurement = "< 10 nM"

[[record]]
compound = "CC1(C)[C@H](Oc2ccc(C#N)c(Cl)c2)C(C)(C)[C@H]1N1Cc2nc(C#CC3CCC(N4CC5(CCN(c6cc7c(cc6F)C(=O)N(C6CCC(=O)NC6=O)C7=O)C5)C4)CC3)ccc2C1=O (some centres unmarked) [Compound 371]"
recorded_measurement = "10 to 100 nM"

[[record]]
compound = "CC1(C)[C@H](Oc2ccc(C#N)c(Cl)c2)C(C)(C)[C@H]1N1Cc2nc(C#C[C@H]3C[C@H](N4CCN(c5cc6c(cc5F)C(=O)N(C5CCC(=O)NC5=O)C6=O)CC4)C3)ccc2C1=O (some centres unmarked) [Compound 357]"
recorded_measurement = "< 10 nM"

[[record]]
compound = "N#Cc1ccc(OC2CCC(NC(=O)c3cnc(N4CCC(CN5CC6(CCN(c7cc8c(cc7F)C(=O)N(C7CCC(=O)NC7=O)C8=O)CC6)C5)CC4)cn3)CC2)cc1Cl (centres unmarked) [Compound 234]"
recorded_measurement = "< 10 nM"

